experiment: Rat serum pharmacokinetics after 1.5-hour IV infusion; type: in vivo; conditions: 1.5-hour IV infusion in 0.9% saline, dose (mg/kg) differs per compound, two-compartment model, read-out: Clearance (free drug clearance) (converted)
Measured clearance, listed per entry.
Report as: number unit

Solved cases (5 shown):
# SMI, READOUT_TYPE, VALUE_REPORTED
records = [
    ("NCCN(CCN)C(=O)C[C@H](N)C(=O)N[C@@H](CCc1ccccc1)C(=O)Nc1ccc2cnccc2c1", "clearance", "70.2 mL/min/kg"),
    ("Cl.Cl.Cl.Cl.NCCN(CCN)C(=O)C[C@H](N)C(=O)NCC(=O)N[C@@H](CCc1ccccc1)C(=O)Nc1cnc2ccccc2c1", "clearance", "328 mL/min/kg"),
    ("CC(C)Oc1ccc(NC(=O)[C@H](CCc2ccccc2)NC(=O)[C@@H](N)CC(=O)N(CCN)CCN)c(F)c1", "clearance", "93.3 mL/min/kg"),
    ("NCCN(CCN)C(=O)C[C@@H](N)C(=O)N[C@H](CCc1ccccc1)C(=O)Nc1cnc2ccccc2c1", "clearance", "24.7 mL/min/kg"),
    ("Cl.Cl.Cl.Cl.N[C@@H]1CN(C(=O)CC[C@H](N)C(=O)N[C@H](Cc2ccc(C(F)(F)F)cc2)C(=O)Nc2cnc3ccccc3c2)C[C@@H]1N", "clearance", "56 mL/min/kg"),
]

Ask: # input molecule: Cl.Cl.Cl.Cl.N[C@@H](CCC(=O)N1C[C@H](N)[C@@H](N)C1)C(=O)N[C@H](CCc1ccccc1)C(=O)Nc1cnc2ccccc2c1 ; wanted: its clearance
Result: 45.3 mL/min/kg

Ask: # input molecule: Cl.Cl.Cl.Cl.N[C@@H](CCC(=O)N1C[C@H](N)[C@@H](N)C1)C(=O)N[C@H](Cc1ccc(C(F)(F)F)cc1)C(=O)Nc1cnc2ccccc2c1 ; wanted: its clearance
Result: 105 mL/min/kg

* * *

experiment: Rat serum pharmacokinetics after 1.5-hour IV infusion; type: in vivo; settings: 1.5-hour IV infusion in 0.9% saline, dose (mg/kg) differs per compound, two-compartment model
Label Criterion met when Cmax is at or above 2000 ng/mL; otherwise label Criterion not met.

Look over these answered cases.
# COMPOUND, ANSWER_LABEL
data = [
    ("CCCc1ccccc1NC(=O)[C@H](CCc1ccccc1)NC(=O)[C@@H](N)CC(=O)N(CCN)CCN", "Criterion not met"),
    ("NCCN(CCN)C(=O)C[C@H](N)C(=O)N[C@@H](CCc1ccccc1)C(=O)Nc1ccc2cnccc2c1", "Criterion met"),
    ("Cl.Cl.Cl.Cl.N[C@@H](CCC(=O)N1C[C@H](N)[C@@H](N)C1)C(=O)N[C@H](CCc1ccccc1)C(=O)Nc1cnc2ccccc2c1", "Criterion met"),
    ("CCOc1ccc(NC(=O)[C@H](CCc2ccccc2)NC(=O)[C@@H](N)CC(=O)N(CCN)CCN)cc1", "Criterion met"),
    ("Cl.Cl.Cl.Cl.N[C@@H]1CN(C(=O)CC[C@H](N)C(=O)N[C@H](Cc2ccc(C(F)(F)F)cc2)C(=O)Nc2cnc3ccccc3c2)C[C@@H]1N", "Criterion met"),
    ("Cl.Cl.Cl.Cl.NCCN(CCN)C(=O)C[C@H](N)C(=O)NCC(=O)N[C@@H](CCc1ccccc1)C(=O)Nc1cnc2ccccc2c1", "Criterion met"),
]

Ask: Decide: is the reported value of Cmax for NCCN(CCN)C(=O)C[C@H](N)C(=O)N[C@@H](CCc1ccccc1)C(=O)NCc1c(Cl)cccc1Cl equal to or greater than 2000 ng/mL?
Result: Criterion not met

Ask: Decide: is the reported value of Cmax for CC(C)Oc1ccc(CNC(=O)[C@H](CCc2ccccc2)NC(=O)[C@@H](N)CC(=O)N(CCN)CCN)cc1 equal to or greater than 2000 ng/mL?
Result: Criterion not met

Ask: Decide: is the reported value of Cmax for Cc1cc(CNC(=O)[C@H](CCc2ccccc2)NC(=O)[C@@H](N)CC(=O)N(CCN)CCN)c(C(F)(F)F)o1 equal to or greater than 2000 ng/mL?
Result: Criterion met

Ask: Decide: is the reported value of Cmax for CC(C)c1ccc(NC(=O)[C@H](CCc2ccccc2)NC(=O)[C@@H](N)CC(=O)N(CCN)CCN)cc1 equal to or greater than 2000 ng/mL?
Result: Criterion met

Ask: Decide: is the reported value of Cmax for Cc1ccc(C)c(CNC(=O)[C@H](CCc2ccccc2)NC(=O)[C@@H](N)CC(=O)N(CCN)CCN)c1 equal to or greater than 2000 ng/mL?
Result: Criterion met

Ask: Decide: is the reported value of Cmax for NCCN(CCN)C(=O)C[C@H](N)C(=O)N[C@@H](CCc1ccccc1)C(=O)Nc1cnc2ccccc2c1 equal to or greater than 2000 ng/mL?
Result: Criterion met

Ask: Decide: is the reported value of Cmax for Cl.Cl.Cl.Cl.NCCN(CCN)C(=O)C[C@H](N)C(=O)N[C@H](C(=O)Nc1cnc2ccccc2c1)C(O)c1ccc(C(F)(F)F)cc1 (stereo partly shown) equal to or greater than 2000 ng/mL?
Result: Criterion met
